src = patent US5801174A

- Tested Target: AMPA receptor
- Assay Summary: AMPA receptor binding affinity (in vitro)
- Measurement Setup: Table 1
Please note: IC50 exactly at 20 nM is Not satisfied. Only values below 20 nM get Satisfied.

CN1CCc2c(-c3ccc(S(=O)(=O)NC(C)(C)C)cc3)cc3c(c2C1)NC(=O)C3=NO    Not satisfied
CN1CCc2c(-c3ccc(S(=O)(=O)Nc4ccccc4)cc3)cc3c(c2C1)NC(=O)C3=NO    Not satisfied
CN1CCc2c(-c3ccc(S(=O)(=O)N(C)C)cc3)cc3c(c2C1)NC(=O)C3=NOC(C)(C)C    Not satisfied

In the following, a different molecule is considered.
Strictly below 20 nM in IC50? `CN1CCc2c(-c3ccc(S(=O)(=O)N4CCN(CCO)CC4)cc3)cc3c(c2C1)NC(=O)C3=NO`
Satisfied
